Reported IC50 values are given for each entry in this list.
Biological target: human TLR8 (Homo sapiens)
Sequence (Q9NR97 27-1041): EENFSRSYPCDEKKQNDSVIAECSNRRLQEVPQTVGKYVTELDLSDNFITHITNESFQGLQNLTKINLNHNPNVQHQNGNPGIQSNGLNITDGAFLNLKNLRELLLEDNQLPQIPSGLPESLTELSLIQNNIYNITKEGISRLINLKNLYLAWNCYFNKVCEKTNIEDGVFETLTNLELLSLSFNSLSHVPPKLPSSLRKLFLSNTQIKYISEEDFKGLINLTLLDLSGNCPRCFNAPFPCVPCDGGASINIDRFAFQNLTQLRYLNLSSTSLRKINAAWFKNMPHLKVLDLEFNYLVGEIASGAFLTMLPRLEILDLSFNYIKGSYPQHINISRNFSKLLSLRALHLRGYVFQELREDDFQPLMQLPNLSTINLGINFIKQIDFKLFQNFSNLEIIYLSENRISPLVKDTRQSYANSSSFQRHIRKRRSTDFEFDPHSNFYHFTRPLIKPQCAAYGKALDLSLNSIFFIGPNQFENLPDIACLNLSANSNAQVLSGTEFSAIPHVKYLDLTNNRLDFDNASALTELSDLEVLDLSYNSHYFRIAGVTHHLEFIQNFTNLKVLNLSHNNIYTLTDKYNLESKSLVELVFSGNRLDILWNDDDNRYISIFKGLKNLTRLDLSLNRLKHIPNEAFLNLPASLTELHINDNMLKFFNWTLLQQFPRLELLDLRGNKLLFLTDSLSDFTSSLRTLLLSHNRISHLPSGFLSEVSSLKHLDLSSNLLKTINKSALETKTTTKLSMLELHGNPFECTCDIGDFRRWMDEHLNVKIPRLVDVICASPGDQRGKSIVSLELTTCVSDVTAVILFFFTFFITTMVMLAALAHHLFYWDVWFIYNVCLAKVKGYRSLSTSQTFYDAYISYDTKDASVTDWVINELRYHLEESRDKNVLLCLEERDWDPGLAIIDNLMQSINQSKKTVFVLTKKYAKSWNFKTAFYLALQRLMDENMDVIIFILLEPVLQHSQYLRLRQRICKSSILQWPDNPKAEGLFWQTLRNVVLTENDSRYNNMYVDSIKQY
Assay: TLR8 inhibition reporter assay (HEK-Blue cells, SEAP reporter, R848 stimulation)
Conditions: HEK-Blue cells overexpressing human TLR8, SEAP reporter, R848 15.9 μM

get_value(item= Cc1cc2nnnn2cc1-c1[nH]c2ccc(C3CCN(C4COC4)CC3)cc2c1C(C)C [Example 742] , readout=IC50) returns 100 to 1000 nM

IC50 for Cc1nn2ccc(-c3[nH]c4ccc(C5CCNCC5)cc4c3C(C)C)nc2c1F [Example 150] is 1000 to 50000 nM

The reported IC50 of the compound CCc1c[nH]c2nccc(-c3[nH]c4ccc(C5CCNCC5)cc4c3C)c12 [Example 219] was 100 to 1000 nM

Documented IC50 of Cc1cc(-c2[nH]c3ccc(C4CCN(CC(N)=O)CC4)cc3c2C(C)C)cc2cnnn12 [Example 321] : < 100 nM

CNC(=O)CN1CCC(c2ccc3[nH]c(-c4cc(Cl)c5ncccc5c4)c(C(C)C)c3c2)CC1 [Example 381] yielded IC50 of 100 to 1000 nM

* * *

biological target: human TLR8 (Homo sapiens, UniProt Q9NR97); test: TLR8 inhibition reporter assay (HEK-Blue cells, SEAP reporter, R848 stimulation); settings: HEK-Blue cells overexpressing human TLR8, SEAP reporter, R848 15.9 μM
QUANTITY_NAME: IC50

{"COMPOUND": "Cc1ccnc2[nH]cc(-c3[nH]c4ccc(C5CCN(C6CCOCC6)CC5)cc4c3C(C)C)c12", "IC50": "< 100 nM"}
{"COMPOUND": "CCc1c(C)c(-c2[nH]c3ccc(C4CCNCC4)cc3c2C(C)C)cn2ccnc12", "IC50": "< 100 nM"}
{"COMPOUND": "Cc1c(-c2[nH]c3ccc(C4CCN(C(=O)CCN5CCOCC5)CC4)cc3c2C(C)C)cn2nnnc2c1C", "IC50": "< 100 nM"}
{"COMPOUND": "CC(C)c1c(-c2ccnc3cnn(C)c23)[nH]c2ccc(C3CCNCC3)cc12 [Example 42]", "IC50": "100 to 1000 nM"}
{"COMPOUND": "CC(C)c1c(-c2ccnc3[nH]ncc23)[nH]c2ccc(C3CCN(Cc4ccncc4Cl)CC3)cc12", "IC50": "100 to 1000 nM"}

Shift focus to the following entry.
Measured IC50 for this entry Cc1cc(-c2[nH]c3ccc(C4CCN(C(=O)CN(C)C)CC4)cc3c2C(C)C)cc2ncnn12 on human TLR8 (Homo sapiens, UniProt Q9NR97): < 100 nM
